- System: SW-620
- measurement notes: NCI60 one-dose screen
- Type: cell-based
- experimental conditions: Homo sapiens, SW-620, read-out: Growth percent
activity at 10 µM below -50% gives label 0; activity at 10 µM at or above it gives label 1.

CC[C@]12C=CCN3CC[C@@]4(c5ccc(OC)cc5N(C)[C@H]4[C@@](O)(C(=O)OC)[C@@H]1OC(=O)CCCC[P+](C1CCCCC1)(C1CCCCC1)C1CCCCC1)[C@@H]32 [10d]
label 1
CC[C@]12C=CCN3CC[C@@]4(c5ccc(OC)cc5N(C)[C@H]4[C@@](O)(C(=O)OC)[C@@H]1OC(=O)CCCC[P+](c1ccc(C)cc1)(c1ccc(C)cc1)c1ccc(C)cc1)[C@@H]32 [10a]
label 0
CC[C@]12C=CCN3CC[C@@]4(c5ccc(OC)cc5N(C)[C@H]4[C@@](O)(C(=O)OC)[C@@H]1OC(=O)CCCC[P+](c1ccc(OC)cc1)(c1ccc(OC)cc1)c1ccc(OC)cc1)[C@@H]32 [10b]
label 0

# input activity at 10 µM >= -50% for CC[C@]12C=CCN3CC[C@@]4(c5ccc(OC)cc5N(C)[C@H]4[C@@](O)(C(=O)OC)[C@@H]1OC(=O)CCCC[P+](c1ccccc1)(c1ccccc1)c1ccccc1)[C@@H]32 [compound 4, reference compound] ?
# output label 1
